target: Bn-VAKGL pentapeptide of filamin A (FLNA) (Homo sapiens, UniProt P21333); experiment: FITC-NLX-based FLNA screening assay (FLNA peptide binding assay); settings: 1 μM compound, 10 nM FITC-NLX
measuredQuantity: Percent inhibition of FITC-NLX binding, 1 μM (%)
Answers are plain numbers, in %.

Here is how some compounds turned out for Percent inhibition of FITC-NLX binding, 1 μM.
> print(dat)
                                   compound  measuredresult
1  COc1cccc(OC)c1CC(=O)CC1c2c(cc3c(c2OC)OCO3)CC[N+]1(C)C.[I-] (stereo not shown)            62.1
2  COc1c2c(cc3c1C(CC(=O)Cc1ccc(Br)cc1)[N+](C)(C)CC3)OCO2 (stereo not shown)            55.8
3  COc1ccccc1CC(O)CC1c2c(cc3c(c2OC)OCO3)CC[N+]1(C)C.[I-] (stereo not shown)            48.9

# next compound below
### Prompt Please supply the value of reported Percent inhibition of FITC-NLX binding, 1 μM for the item COc1ccc(C(=O)CC2c3c(cc4c(c3OC)OCO4)CC[N+]2(C)C)c(O)c1.[I-] (stereo not shown)
### Response 49.4

---

target: Bn-VAKGL pentapeptide of filamin A (FLNA) (Homo sapiens); assay: FITC-NLX-based FLNA screening assay (FLNA peptide binding assay); settings: 0.1 μM compound, 10 nM FITC-NLX
Entry flag: Yes if Percent inhibition of FITC-NLX binding, 0.1 μM reaches 40%; No if it does not.

Sample answers from the record:
> print(dat)
                                   compound  answerlabel
1  COc1c2c(cc3c1C(CC(O)CCc1ccccc1)N(C)CC3)OCO2 (stereo not drawn) [B0051]           No
2  COc1c2c(cc3c1C(CC(=O)c1ccc(O)c(C)c1)[N+](C)(C)CC3)OCO2 (stereo not drawn) [B0002]          Yes

### Prompt Reported Percent inhibition of FITC-NLX binding, 0.1 μM reaches at least 40% for COc1c2c(cc3c1C(CC(=O)CCc1ccc(F)cc1)[N+](C)(C)CC3)OCO2 (stereo not drawn) [B0018] ?
### Response Yes

### Prompt Determine whether measured Percent inhibition of FITC-NLX binding, 0.1 μM meets or exceeds 40% for COc1c2c(cc3c1C(CC(=O)Cc1ccc(C#N)cc1)[N+](C)(C)CC3)OCO2 (stereo not drawn) [B0012]
### Response Yes

---

Target: UniProt:P21333
Assay: FITC-NLX-based FLNA screening assay (FLNA peptide binding assay)
Settings: 0.01 μM compound, 10 nM FITC-NLX
Procedure: The final assay volume is 100 μl. Compounds are tested in triplicate or quadruplicate.
Kindly supply the reported Percent inhibition of FITC-NLX binding, 0.01 μM values for the records listed here.
One number for each entry, in %.

Recorded Percent inhibition of FITC-NLX binding, 0.01 μM, per entry:
> print(dat)
                                   compound    systemtested  measuredresult
1  COc1c2c(cc3c1C(CC(=O)Cc1ccc(Br)cc1)[N+](C)(C)CC3)OCO2 (stereo not drawn) [B0011]  UniProt:P21333            40.9
2  COc1ccc(CC(=O)CC2c3c(cc4c(c3OC)OCO4)CC[N+]2(C)C)c(OC)c1 (stereo not drawn) [B0029]  UniProt:P21333            33.4
3  COc1c2c(cc3c1C(CC(=O)c1ccc(O)c(C)c1)[N+](C)(C)CC3)OCO2 (stereo not drawn) [B0002]  UniProt:P21333            40.2

Please look at the items below and tell me Percent inhibition of FITC-NLX binding, 0.01 μM for each one, in order.
1. COc1c2c(cc3c1C(CC(=O)Cc1ccc(C#N)cc1)[N+](C)(C)CC3)OCO2 (stereo not drawn) [B0012]
2. COc1c2c(cc3c1C(CC(=O)c1ccncc1)[N+](C)(C)CC3)OCO2 (stereo not drawn) [B0005]
3. COc1cccc(CCC(=O)CC2c3c(cc4c(c3OC)OCO4)CC[N+]2(C)C)c1 (stereo not drawn) [B0034]

### Response
39.4
31.8
49.1

# batch size: 3; output Percent inhibition of FITC-NLX binding, 0.01 μM per entry
1. COc1ccc(CCC(=O)CC2c3c(cc4c(c3OC)OCO4)CC[N+]2(C)C)c(OC)c1 (stereo not drawn) [B0043]
2. COc1cccc(CC(=O)CC2c3c(cc4c(c3OC)OCO4)CC[N+]2(C)C)c1OC (stereo not drawn) [B0038]
3. COc1c2c(cc3c1C(CC(O)CCc1ccccc1)[N+](C)(C)CC3)OCO2 (stereo not drawn) [B0052]

### Response
30.8
41.2
30.2
